biological target: recombinant wild-type IDE (WT-IDE) (Homo sapiens); assay: cell-free IDE activity assay with fluorogenic peptide substrate FRET1; assay type: biochemical
pIC50: −log10 of the molar value.
MEASURE_NAME: pIC50

[
  {
    "INPUT_SMILES": "O=c1c2cc(C(F)(F)F)ccc2sn1-c1cc(S(=O)(=O)N2CCOCC2)ccc1N1CCOCC1",
    "MEASURE_NAME": "pIC50",
    "TEST_VALUE": 7.15
  }
]

###

Biological target: recombinant wild-type IDE (WT-IDE) (Homo sapiens, UniProt P14735)
Sequence (P14735 1-1019): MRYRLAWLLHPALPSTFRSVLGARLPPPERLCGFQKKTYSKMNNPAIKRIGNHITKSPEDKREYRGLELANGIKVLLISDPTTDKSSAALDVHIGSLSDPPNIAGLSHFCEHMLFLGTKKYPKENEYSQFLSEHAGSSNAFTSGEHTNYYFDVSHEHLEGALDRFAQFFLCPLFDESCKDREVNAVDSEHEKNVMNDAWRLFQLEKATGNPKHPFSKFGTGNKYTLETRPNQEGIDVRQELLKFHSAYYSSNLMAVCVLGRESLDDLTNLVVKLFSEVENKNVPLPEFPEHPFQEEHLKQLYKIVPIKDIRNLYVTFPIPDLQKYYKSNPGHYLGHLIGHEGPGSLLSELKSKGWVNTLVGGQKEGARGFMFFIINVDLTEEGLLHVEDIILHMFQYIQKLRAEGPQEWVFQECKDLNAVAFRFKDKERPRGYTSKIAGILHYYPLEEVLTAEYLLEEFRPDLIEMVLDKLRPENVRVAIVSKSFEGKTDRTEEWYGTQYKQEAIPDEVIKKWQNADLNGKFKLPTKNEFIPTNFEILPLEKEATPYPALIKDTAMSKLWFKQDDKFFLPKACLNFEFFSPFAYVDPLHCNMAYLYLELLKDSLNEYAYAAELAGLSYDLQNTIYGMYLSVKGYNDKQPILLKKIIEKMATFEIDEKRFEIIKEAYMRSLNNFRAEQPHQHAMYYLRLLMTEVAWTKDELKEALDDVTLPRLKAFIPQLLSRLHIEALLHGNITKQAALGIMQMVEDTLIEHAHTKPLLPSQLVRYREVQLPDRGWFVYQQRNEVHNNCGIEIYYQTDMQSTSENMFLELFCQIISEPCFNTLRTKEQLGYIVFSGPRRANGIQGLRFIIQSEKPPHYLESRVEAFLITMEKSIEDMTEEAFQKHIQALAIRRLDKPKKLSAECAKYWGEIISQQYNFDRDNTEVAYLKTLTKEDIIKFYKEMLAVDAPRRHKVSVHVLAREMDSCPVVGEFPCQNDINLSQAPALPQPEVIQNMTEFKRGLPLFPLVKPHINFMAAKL
Experiment: cell-free IDE activity assay with fluorogenic peptide substrate FRET1
Assay type: biochemical
Details: read-out: IC50^app cell-free; Table 2
MEASURE_NAME: IC50 (nM)

[
  {
    "INPUT_SMILES": "O=c1c2cc(F)ccc2sn1-c1cc(S(=O)(=O)N2CCOCC2)ccc1N1CCOCC1",
    "TARGET_OF_ASSAY": "recombinant wild-type IDE (WT-IDE) (Homo sapiens, UniProt P14735)",
    "TEST_VALUE": 63
  }
]

###

biological target: extracellular IDE (Homo sapiens, UniProt P14735); assay: cell-based IDE activity assay
MEASURE_NAME: IC50 (nM)

[
  {
    "MOLECULE": "O=c1c2cc(C(F)(F)F)ccc2sn1-c1cc(S(=O)(=O)N2CCOCC2)ccc1N1CCOCC1 [Compound 9]",
    "TARGET_OF_ASSAY": "extracellular IDE (Homo sapiens, UniProt P14735)",
    "MEASURE_NAME": "IC50",
    "TEST_VALUE": 120
  }
]

###

Molecular target: extracellular IDE (Homo sapiens, UniProt P14735)
Sequence (P14735 1-1019): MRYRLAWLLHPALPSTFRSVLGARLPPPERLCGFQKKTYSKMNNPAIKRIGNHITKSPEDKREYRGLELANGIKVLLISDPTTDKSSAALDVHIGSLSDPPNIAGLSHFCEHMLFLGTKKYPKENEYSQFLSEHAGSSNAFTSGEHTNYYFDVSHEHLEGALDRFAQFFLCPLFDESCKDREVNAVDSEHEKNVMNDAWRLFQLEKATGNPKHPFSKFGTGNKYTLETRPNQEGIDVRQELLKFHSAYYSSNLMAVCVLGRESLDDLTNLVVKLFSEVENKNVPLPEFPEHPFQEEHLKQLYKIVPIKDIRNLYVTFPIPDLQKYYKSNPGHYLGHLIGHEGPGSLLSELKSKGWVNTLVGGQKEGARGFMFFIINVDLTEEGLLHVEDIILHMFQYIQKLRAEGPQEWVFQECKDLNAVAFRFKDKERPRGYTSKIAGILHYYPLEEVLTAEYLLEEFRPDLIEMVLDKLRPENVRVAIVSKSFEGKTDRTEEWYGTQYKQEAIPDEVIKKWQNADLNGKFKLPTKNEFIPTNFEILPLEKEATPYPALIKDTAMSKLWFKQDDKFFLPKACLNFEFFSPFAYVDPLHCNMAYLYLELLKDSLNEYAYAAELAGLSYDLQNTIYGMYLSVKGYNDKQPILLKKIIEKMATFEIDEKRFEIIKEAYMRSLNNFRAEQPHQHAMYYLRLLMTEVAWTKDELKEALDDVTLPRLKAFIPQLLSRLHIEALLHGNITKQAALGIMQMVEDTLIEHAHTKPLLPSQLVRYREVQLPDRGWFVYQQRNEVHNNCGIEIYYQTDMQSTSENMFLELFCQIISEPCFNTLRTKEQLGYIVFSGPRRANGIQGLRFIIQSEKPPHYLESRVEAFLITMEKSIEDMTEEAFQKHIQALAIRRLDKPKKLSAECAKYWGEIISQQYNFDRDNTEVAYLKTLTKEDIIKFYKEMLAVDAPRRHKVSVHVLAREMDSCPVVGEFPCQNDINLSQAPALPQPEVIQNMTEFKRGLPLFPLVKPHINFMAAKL
Experiment: cell-based IDE activity assay
Details: read-out: IC50^app cell-based; Table 1; HEK-293 cells, extracellular IDE
Catalogue of IC50 values
MEASURE_NAME: IC50 (µM)

[
  {
    "COMPOUND": "O=c1c2ccccc2sn1-c1cc(S(=O)(=O)N2CCOCC2)ccc1N1CCOCC1 [Compound 1]",
    "TARGET_OF_ASSAY": "extracellular IDE (Homo sapiens, UniProt P14735)",
    "LIMIT_OPERATOR": "=",
    "TEST_VALUE": 1.4
  },
  {
    "COMPOUND": "O=c1c2cc(F)ccc2sn1-c1ccccc1 [Compound 7]",
    "TARGET_OF_ASSAY": "extracellular IDE (Homo sapiens, UniProt P14735)",
    "LIMIT_OPERATOR": "=",
    "TEST_VALUE": 3.9
  },
  {
    "COMPOUND": "O=c1c2ccccc2sn1-c1ccc(S(=O)(=O)N2CCCC2)cc1 [Compound 6]",
    "TARGET_OF_ASSAY": "extracellular IDE (Homo sapiens, UniProt P14735)",
    "LIMIT_OPERATOR": ">",
    "TEST_VALUE": 10
  },
  {
    "COMPOUND": "O=c1c2ccccc2sn1-c1cc(S(=O)(=O)N2CCOCC2)ccc1N1CCCC1 [Compound 4]",
    "TARGET_OF_ASSAY": "extracellular IDE (Homo sapiens, UniProt P14735)",
    "LIMIT_OPERATOR": "=",
    "TEST_VALUE": 5.6
  },
  {
    "COMPOUND": "Cc1ccc(-n2sc3ccccc3c2=O)cc1S(=O)(=O)N1CCCCC1 [Compound 3]",
    "TARGET_OF_ASSAY": "extracellular IDE (Homo sapiens, UniProt P14735)",
    "LIMIT_OPERATOR": "=",
    "TEST_VALUE": 4
  },
  {
    "COMPOUND": "CN(C)S(=O)(=O)c1cccc(-n2sc3ccccc3c2=O)c1 [Compound 5]",
    "TARGET_OF_ASSAY": "extracellular IDE (Homo sapiens, UniProt P14735)",
    "LIMIT_OPERATOR": ">",
    "TEST_VALUE": 10
  },
  {
    "COMPOUND": "O=C(O)c1ccccc1NS(=O)(=O)c1cccc(-n2sc3ccccc3c2=O)c1 [Compound 2]",
    "TARGET_OF_ASSAY": "extracellular IDE (Homo sapiens, UniProt P14735)",
    "LIMIT_OPERATOR": "=",
    "TEST_VALUE": 2.1
  }
]

###

target: recombinant wild-type IDE (WT-IDE) (Homo sapiens); experiment: cell-free IDE activity assay with fluorogenic peptide substrate FRET1; assay type: biochemical; conditions: read-out: IC50^app cell-free; Table 1; WT-IDE, FRET1
Catalogue of IC50 values

[
  {
    "INPUT_SMILES": "O=c1c2ccccc2sn1-c1ccc(S(=O)(=O)N2CCCC2)cc1",
    "UNITS_LABEL": "nM",
    "LIMIT_OPERATOR": ">",
    "IC50": 10000
  },
  {
    "INPUT_SMILES": "Cc1ccc(-n2sc3ccccc3c2=O)cc1S(=O)(=O)N1CCCCC1",
    "UNITS_LABEL": "nM",
    "LIMIT_OPERATOR": "=",
    "IC50": 1030
  },
  {
    "INPUT_SMILES": "O=C(O)c1ccccc1NS(=O)(=O)c1cccc(-n2sc3ccccc3c2=O)c1",
    "UNITS_LABEL": "nM",
    "LIMIT_OPERATOR": "=",
    "IC50": 540
  },
  {
    "INPUT_SMILES": "O=c1c2ccccc2sn1-c1cc(S(=O)(=O)N2CCOCC2)ccc1N1CCOCC1",
    "UNITS_LABEL": "nM",
    "LIMIT_OPERATOR": "=",
    "IC50": 230
  },
  {
    "INPUT_SMILES": "O=c1c2ccccc2sn1-c1cc(S(=O)(=O)N2CCOCC2)ccc1N1CCCC1",
    "UNITS_LABEL": "nM",
    "LIMIT_OPERATOR": "=",
    "IC50": 1120
  },
  {
    "INPUT_SMILES": "O=c1c2cc(F)ccc2sn1-c1ccccc1",
    "UNITS_LABEL": "nM",
    "LIMIT_OPERATOR": "=",
    "IC50": 1800
  }
]
